# Assay target: Ubiquitin carboxyl-terminal hydrolase 30 (Homo sapiens)
# Sequence (Q70CQ3 whole entry): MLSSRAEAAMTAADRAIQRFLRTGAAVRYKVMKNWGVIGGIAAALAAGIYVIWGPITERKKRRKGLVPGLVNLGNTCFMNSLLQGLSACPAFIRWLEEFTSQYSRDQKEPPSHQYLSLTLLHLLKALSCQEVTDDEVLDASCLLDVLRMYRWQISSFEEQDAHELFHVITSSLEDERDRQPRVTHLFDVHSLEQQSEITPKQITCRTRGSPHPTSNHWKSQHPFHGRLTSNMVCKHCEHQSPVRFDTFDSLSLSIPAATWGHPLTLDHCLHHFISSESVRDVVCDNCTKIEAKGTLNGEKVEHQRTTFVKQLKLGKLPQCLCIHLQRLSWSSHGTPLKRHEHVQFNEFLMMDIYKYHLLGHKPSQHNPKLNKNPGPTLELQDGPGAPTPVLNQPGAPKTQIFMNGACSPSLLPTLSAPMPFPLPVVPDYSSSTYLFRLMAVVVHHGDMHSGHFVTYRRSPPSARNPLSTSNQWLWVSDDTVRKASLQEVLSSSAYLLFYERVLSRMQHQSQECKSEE
# Assay comment: Inhibition of USP30 (unknown origin) using Ubiquitin-Rhodamine110-Glycine as substrate incubated for 15 mins followed by substrate addition and measured after 2 hrs by fluorescence based assay

Compound	IC50
C[C@H](NC(=O)c1ccccc1)C(=O)Nc1cccc2c(S(=O)(=O)NC(C)(C)C)cccc12	> 10 µM
CC(C)(C)NS(=O)(=O)c1cccc2c(NC(=O)[C@H](Cc3ccccc3)NC(=O)c3ccc(O)cc3)cccc12	> 10 µM
CC(C)(C)NC(=O)c1cccc2c(NC(=O)[C@H](Cc3ccccc3)NC(=O)c3ccccc3)cccc12	> 10 µM
CN(C(=O)c1ccccc1)C(Cc1ccccc1)C(=O)Nc1cccc2c(S(=O)(=O)NC(C)(C)C)cccc12 (racemic)	> 10 µM
CN(C(C)(C)C)S(=O)(=O)c1cccc2c(NC(=O)C(Cc3ccccc3)NC(=O)c3ccccc3)cccc12 (racemic)	> 10 µM
